- Tested on: hEPO
- METHOD: Quantification of hEPO in serum after IV injection of mRNA (Human EPO ELISA)
- Type: in vivo
- TEST CONDITIONS: Balb/c mice, 2.5 μg mRNA IV, serum after 6 hours
Non-standard residues stand in square brackets, D forms with d. Residues, ends and D or L forms follow the SMILES beside them. Gly(N-(3-decanoyloxypropyl)) = CCCCCCCCCC(=O)OCCCNCC(=O)O; N(2-decanoyloxyethyl)Gly = CCCCCCCCCC(=O)OCCNCC(=O)O; N(3-imidazol-1-ylpropyl)Gly = O=C(O)CNCCCn1ccnc1; N(2-ethylhexyl)Gly = CCCCC(CC)CNCC(=O)O; N(CH(CH2OH)2)Gly = O=C(O)CNC(CO)CO
PROPERTY NAME: hEPO (ng/mL)
Numbers only, in ng/mL.

CCCCCCCCCC(=O)OCCCN(CC(N)=O)C(=O)CN(CC(CC)CCCC)C(=O)CN(CCCOC(=O)CCCCCCCCC)C(=O)CN(CCCOC(=O)CCCCCCCCC)C(=O)CN(CC(CC)CCCC)C(=O)CN(CCCOC(=O)CCCCCCCCC)C(=O)CNC(CO)CO (centres unmarked) [Compound 53] (H-[N(CH(CH2OH)2)Gly][Gly(N-(3-decanoyloxypropyl))][N(2-ethylhexyl)Gly][Gly(N-(3-decanoyloxypropyl))][Gly(N-(3-decanoyloxypropyl))][N(2-ethylhexyl)Gly][Gly(N-(3-decanoyloxypropyl))]-NH2): 71.6

Now take the following molecule into account.
The recorded hEPO for CCCCCCCCCC(=O)OCCN(CC(=O)N(CCOC(=O)CCCCCCCCC)CC(=O)N(CC(=O)N(CCOC(=O)CCCCCCCCC)CC(=O)N(CCOC(=O)CCCCCCCCC)CC(=O)N(CC(N)=O)CC(CC)CCCC)CC(CC)CCCC)C(=O)CNCCCn1ccnc1 (centres unmarked) [Compound 79] (H-[N(3-imidazol-1-ylpropyl)Gly][N(2-decanoyloxyethyl)Gly][N(2-decanoyloxyethyl)Gly][N(2-ethylhexyl)Gly][N(2-decanoyloxyethyl)Gly][N(2-decanoyloxyethyl)Gly][N(2-ethylhexyl)Gly]-NH2) is 320

Values compiled from patent US20260373248A1.
